molecular target: IgE antibodies of the individual allergic patient serum II/3; assay: EAST inhibition, individual serum II/3
property-name: allergenic potency (Prel) at 25% inhibition (relative to native Phl p 5b)
Respond using a number only.

Prompt line: Fill in: allergenic potency (Prel) at 25% inhibition (relative to native Phl p 5b) of recombinant Phl p 5b (wild type) (protein) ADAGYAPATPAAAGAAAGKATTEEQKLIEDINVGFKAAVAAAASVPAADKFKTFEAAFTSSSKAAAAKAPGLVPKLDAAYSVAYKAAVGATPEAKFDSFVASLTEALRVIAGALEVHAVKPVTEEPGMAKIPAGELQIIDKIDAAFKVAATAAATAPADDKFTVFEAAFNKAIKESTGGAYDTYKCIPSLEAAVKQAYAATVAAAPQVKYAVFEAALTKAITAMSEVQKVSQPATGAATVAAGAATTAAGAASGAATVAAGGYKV is ___
Response line: 0.903
